Examples of compounds with documented MBC follow.
Test system: P. mirabilis ATCC 35659
Test: Planktonic susceptibility (MIC/MBC), 96-well broth microdilution
Format: cell-based
Settings: Proteus mirabilis, ATCC35659
Endpoint: MBC (µM)

> print(dat)
                                   compound                      tgt  comparison.sign  reported.result
1  O=C(O)c1cn(C2CC2)c2cc(N3CCNCC3)c(F)cc2c1=O [Cip, Ciprofloxacin, reference compound]  P. mirabilis ATCC 35659                =              800
2  O=C(Nc1ccc(S(F)(F)(F)(F)F)cc1)Nc1ccc2nnsc2c1 [EPB-21]  P. mirabilis ATCC 35659                >             5000
3  CNC(C)C1CCC(N)C(OC2C(N)CC(N)C(OC3OCC(C)(O)C(NC)C3O)C2O)O1 (stereo not drawn) [Gen, Gentamicin, reference compound]  P. mirabilis ATCC 35659                =               50
4  O=C(Nc1ccc(Cl)c(C(F)(F)F)c1)Nc1ccc(Cl)c(C(F)(F)F)c1 [EBP-34]  P. mirabilis ATCC 35659                =              625
5  O=C(Nc1ccc(Cl)c(Cl)c1)Nc1ccc2nnsc2c1 [B]  P. mirabilis ATCC 35659                >             5000
6  O=C(Nc1ccc(Cl)cc1)Nc1cccc(S(F)(F)(F)(F)F)c1Cl [EBP-58]  P. mirabilis ATCC 35659                >             5000
7  O=C(Nc1ccc(Cl)c(S(F)(F)(F)(F)F)c1)Nc1ccc(Cl)c(S(F)(F)(F)(F)F)c1 [EBP-56]  P. mirabilis ATCC 35659                >             5000
8  O=C(Nc1ccc2nnsc2c1)Nc1cc(S(F)(F)(F)(F)F)ccc1Cl [EPB-23]  P. mirabilis ATCC 35659                >             5000
9  O=C(Nc1ccc(S(F)(F)(F)(F)F)cc1)Nc1ccc(Cl)c(Cl)c1 [EBP-59]  P. mirabilis ATCC 35659                =                2

* * *

Tested on: 10 clinical isolates of MRSA from Foothills Hospital, Calgary
Assay: Planktonic susceptibility (MIC/MBC) of MRSA clinical isolates
Format: cell-based, methicillin-resistant S. aureus
Details: Staphylococcus aureus, MRSA #4 clinical isolate
Endpoint: MIC

> print(dat)
                                   compound                                       tgt  endpoint  reported.result
1  O=C(Nc1ccc(Cl)c(C(F)(F)F)c1)Nc1ccc(Cl)c(C(F)(F)F)c1 [EBP-34]  10 clinical isolates of MRSA from Foothills Hospital, Calgary       MIC           < 2 µM
2  O=C(Nc1ccc(S(F)(F)(F)(F)F)cc1)Nc1ccc(Cl)c(Cl)c1 [EBP-59]  10 clinical isolates of MRSA from Foothills Hospital, Calgary       MIC           < 2 µM
3  O=C(Nc1ccc(Cl)c(C(F)(F)F)c1)Nc1cc(S(F)(F)(F)(F)F)ccc1Cl [EBP-37]  10 clinical isolates of MRSA from Foothills Hospital, Calgary       MIC           < 2 µM
4  O=C(Nc1ccc(Cl)cc1)Nc1cc(S(F)(F)(F)(F)F)ccc1Cl [EBP-40]  10 clinical isolates of MRSA from Foothills Hospital, Calgary       MIC            40 µM
5  CNC(C)C1CCC(N)C(OC2C(N)CC(N)C(OC3OCC(C)(O)C(NC)C3O)C2O)O1 (stereo not shown) [Gen, Gentamicin, reference compound]  10 clinical isolates of MRSA from Foothills Hospital, Calgary       MIC            50 µM
6  O=C(Nc1ccc(Cl)cc1)Nc1cccc(S(F)(F)(F)(F)F)c1 [EBP-62]  10 clinical isolates of MRSA from Foothills Hospital, Calgary       MIC           < 2 µM
7  O=C(Nc1ccc(Cl)cc1)Nc1ccc(S(F)(F)(F)(F)F)cc1 [EPB-61]  10 clinical isolates of MRSA from Foothills Hospital, Calgary       MIC           < 2 µM

* * *

Tested on: MDCK cells
Assay: Eukaryotic cell toxicity, MTS assay (CC50)
Format: cell-based, canine
Conditions: MTS assay, 4 days; mean of 2 or 3 determinations; read-out: MDCK (CC50) in vitro cytotoxicity
Endpoint: CC50

> print(dat)
                                   compound         tgt  endpoint  reported.result
1  O=C(Nc1ccc(S(F)(F)(F)(F)F)cc1)Nc1ccc(Cl)c(Cl)c1 [EBP-59]  MDCK cells      CC50         > 100 µM

* * *

Test system: 10 clinical isolates of MRSA from Foothills Hospital, Calgary
Assay: Planktonic susceptibility (MIC/MBC) of MRSA clinical isolates
Type: cell-based, methicillin-resistant S. aureus
Conditions: Staphylococcus aureus, MRSA #9 clinical isolate
Endpoint: MBC (µM)

> print(dat)
                                   compound                                       tgt  comparison.sign  reported.result
1  O=C(Nc1ccc(Cl)cc1)Nc1ccc(S(F)(F)(F)(F)F)cc1  10 clinical isolates of MRSA from Foothills Hospital, Calgary                =               40
2  O=C(Nc1ccc(Cl)cc1)Nc1cc(S(F)(F)(F)(F)F)ccc1Cl  10 clinical isolates of MRSA from Foothills Hospital, Calgary                =               80
3  O=C(Nc1ccc(Cl)c(C(F)(F)F)c1)Nc1cc(S(F)(F)(F)(F)F)ccc1Cl  10 clinical isolates of MRSA from Foothills Hospital, Calgary                =               10
4  O=C(Nc1ccc(Cl)cc1)Nc1cccc(S(F)(F)(F)(F)F)c1  10 clinical isolates of MRSA from Foothills Hospital, Calgary                =               40
5  O=C(Nc1ccc(S(F)(F)(F)(F)F)cc1)Nc1ccc(Cl)c(Cl)c1  10 clinical isolates of MRSA from Foothills Hospital, Calgary                =               20
6  O=C(Nc1ccc(Cl)c(C(F)(F)F)c1)Nc1ccc(Cl)c(C(F)(F)F)c1  10 clinical isolates of MRSA from Foothills Hospital, Calgary                <                2
7  CNC(C)C1CCC(N)C(OC2C(N)CC(N)C(OC3OCC(C)(O)C(NC)C3O)C2O)O1 (stereo not shown) [Gen, Gentamicin, reference compound]  10 clinical isolates of MRSA from Foothills Hospital, Calgary                =               50

* * *

Test system: 10 clinical isolates of MRSA from Foothills Hospital, Calgary
Test: Planktonic susceptibility (MIC/MBC) of MRSA clinical isolates
Format: cell-based, methicillin-resistant S. aureus
Conditions: Staphylococcus aureus, MRSA #1 clinical isolate
Examples of compounds with documented MIC follow.
Endpoint: MIC (µM)

> print(dat)
                                   compound                                       tgt  endpoint  unit.tag  comparison.sign  reported.result
1  O=C(Nc1ccc(Cl)c(C(F)(F)F)c1)Nc1ccc(Cl)c(C(F)(F)F)c1  10 clinical isolates of MRSA from Foothills Hospital, Calgary       MIC        µM                =              600
2  O=C(Nc1ccc(Cl)cc1)Nc1ccc(S(F)(F)(F)(F)F)cc1  10 clinical isolates of MRSA from Foothills Hospital, Calgary       MIC        µM                <                2
3  CNC(C)C1CCC(N)C(OC2C(N)CC(N)C(OC3OCC(C)(O)C(NC)C3O)C2O)O1 (stereo not shown) [Gen, Gentamicin, reference compound]  10 clinical isolates of MRSA from Foothills Hospital, Calgary       MIC        µM                =              100
4  O=C(Nc1ccc(Cl)cc1)Nc1cccc(S(F)(F)(F)(F)F)c1  10 clinical isolates of MRSA from Foothills Hospital, Calgary       MIC        µM                <                2
5  O=C(Nc1ccc(Cl)cc1)Nc1cc(S(F)(F)(F)(F)F)ccc1Cl  10 clinical isolates of MRSA from Foothills Hospital, Calgary       MIC        µM                =               20
6  O=C(Nc1ccc(Cl)c(C(F)(F)F)c1)Nc1cc(S(F)(F)(F)(F)F)ccc1Cl  10 clinical isolates of MRSA from Foothills Hospital, Calgary       MIC        µM                =               10
7  O=C(Nc1ccc(S(F)(F)(F)(F)F)cc1)Nc1ccc(Cl)c(Cl)c1  10 clinical isolates of MRSA from Foothills Hospital, Calgary       MIC        µM                <                2
